Hi there, I'd appreciate the recorded IC50 for every entry that follows.
Tested on: LPS-induced nitric oxide (NO) production in RAW264.7 macrophages
ASSAY: Inhibition of LPS-induced NO production in RAW264.7 macrophages (anti-inflammatory assay)
Type: cell-based
ASSAY CONDITIONS: Mus musculus, RAW264.7, RAW 264.7 macrophages, LPS-stimulated; read-out: IC50 (μM), anti-inflammatory activity against LPS-stimulated NO production
One number for each entry, in µM.

Below, 5 molecules whose answers are already recorded.
C[C@H]1CC[C@@H]2[C@H]1C[C@H]([C@](C)(O)CO)CC[C@@]2(C)O = 141
C[C@H]1C[C@H](O)[C@@H]2[C@H]1C[C@H]([C@@](C)(O)CO)CC[C@@]2(C)O = 150
CC(=O)OCC(C)(O)C1CCC(C)(O)C2C(O)CC(C)C2C1 (centres unmarked) = 101
C[C@H]1CC[C@@H]2[C@H]1C[C@H]([C@@H](C)C(=O)O)CC[C@@]2(C)O = 79.1
C=C(C)C1CCC(C)(O)C2C(O)CC(C)C2C1 (centres unmarked) = 138

Hi team, please reply with IC50 for each item in this list.
1. C[C@@H]1[C@@H]2C[C@H]([C@](C)(O)CO)CC[C@@](C)(O)[C@@H]2C[C@@H]1O
2. C[C@](O)(CO)[C@@H]1CC[C@@](C)(O)[C@@H]2CC[C@@](C)(O)[C@@H]2C1

122
166

###

System: LPS-induced nitric oxide (NO) production in RAW264.7 macrophages
ASSAY: Inhibition of LPS-induced NO production in RAW264.7 macrophages (anti-inflammatory assay)
Format: cell-based
ASSAY CONDITIONS: Mus musculus, RAW264.7, RAW 264.7 macrophages, LPS-stimulated; read-out: IC50 (μM), anti-inflammatory activity against LPS-stimulated NO production
QUANTITY MEASURED: IC50
# output: numeric value plus its unit

Below, 3 compounds whose answers are already recorded.
C=C(C)[C@@H]1CC[C@@](C)(O)[C@@H]2CC(=O)[C@H](C)[C@H]2C1 = 72.9 µM
C=C(CO)[C@@H]1CC[C@@](C)(O)[C@H]2[C@@H](C1)[C@@H](C)C[C@@H]2O = 14.2 µM
C=C(C)C1CCC(C)(O)C2CCC(C)C2C1 (stereo not shown) = 103 µM

Given C[C@H]1CC[C@@H]2[C@H]1C[C@H]([C@@](C)(O)CO)C[C@@H](O)[C@@]2(C)O , state its recorded IC50. 88.2 µM

Reference for the values: paper PMC5765142
